tested on: rhinovirus (stored under rhinovirus A2; the sentence does not specify which rhinovirus); test: in vitro; settings: human
METRIC: selectivity ratio

Reported selectivity ratio for Cc1cc(CCCOc2c(C)cc(-c3noc(C(F)(F)F)n3)cc2C)on1 : what is it?
> 3500

----------
Reported 50% Cytotoxic concentration in HeLa cells, Mean by item:
test system: HeLa Ohio cells; assay: Cytotoxicity determination in HeLa Ohio cells (crystal violet, 72 h); format: cell-based, human; conditions: HeLa Ohio cells, 72 h
Structures can show the parent of a compound that is named as a salt. Marks after values point to notes of the source that are not given here.

Record excerpt, results attached:
Cc1cc(CCCOc2c(C)cc(-c3noc(C(F)(F)F)n3)cc2C)on1	28.75 µM
Nc1c(Br)cc(Br)cc1CN[C@H]1CC[C@H](O)CC1	61.24 µM
CN(Cc1cc(Br)cc(Br)c1N)C1CCCCC1 [Bromhexine, bromhexine hydrochloride]	51.85 µM

Below: the item to evaluate.
Any idea what 50% Cytotoxic concentration in HeLa cells, Mean came out for CC(=O)N[C@@H](CS)C(=O)O on HeLa Ohio cells?
> 100^a μM
